Tested on: Mycobacterium tuberculosis
Test Details: Antimycobacterial activity against isoniazid-resistant Mycobacterium tuberculosis MYC5165 after 6 days by MTT assay
Type: functional, organism-based
Experimental Parameters: MYC5165, 144 h
Property: pIC50
The meaning of pIC50 here: minus log10 of the concentration in molar units.

input: Name the recorded pIC50 for O=C(O)c1cn(C2CC2)c2cc(N3CCNCC3)c(F)cc2c1=O [CIPROFLOXACIN] .
output: 5.74

---

Test Details: Selectivity index, ratio of CC50 for human MRC5 cells to MIC for isoniazid-resistant Mycobacterium tuberculosis MYC5165
Assay type: toxicity, cell-based
Experimental Parameters: read-out: Selectivity Index
Outcome label depends on selectivity ratio relative to 60: at/above gives rule met, below gives rule not met.

| Line Notation | Assigned Class |
| --- | --- |
| N=C(N)NCCc1cc2c(O)c(c1)Cc1cc(CCNC(=N)N)cc(c1O)Cc1cc(CCNC(=N)N)cc(c1O)Cc1cc(CCNC(=N)N)cc(c1O)C2 | rule met |

input: Form field: selectivity ratio at least 60? Entry: N=C(N)NCCc1ccc(OCc2cc(COc3ccc(CCNC(=N)N)cc3)cc(COc3ccc(CCNC(=N)N)cc3)c2)cc1.O=C(O)C(F)(F)F
output: rule met

input: Form field: selectivity ratio at least 60? Entry: N=C(N)NCCc1ccc(OCc2ccc(COc3ccc(CCNC(=N)N)cc3)cc2)cc1.O=C(O)C(F)(F)F
output: rule not met

input: Form field: selectivity ratio at least 60? Entry: N=C(N)NCCc1ccc(OCc2ccccc2COc2ccc(CCNC(=N)N)cc2)cc1.O=C(O)C(F)(F)F
output: rule not met

input: Form field: selectivity ratio at least 60? Entry: N=C(N)NCCc1ccc(OCc2cccc(COc3ccc(CCNC(=N)N)cc3)c2)cc1.O=C(O)C(F)(F)F
output: rule met

input: Form field: selectivity ratio at least 60? Entry: N=C(N)NCCc1ccc(OCc2cc(COc3ccc(CCNC(=N)N)cc3)c(COc3ccc(CCNC(=N)N)cc3)cc2COc2ccc(CCNC(=N)N)cc2)cc1.O=C(O)C(F)(F)F
output: rule met
